So I've got a bunch of binders here, and I need their In vitro activity compared with native peptide (%) vs Glucagon (cAMP EC50) values.
TGT: human GCG receptor (human, UniProt P47871 26-477)
Sequence (P47871 26-477): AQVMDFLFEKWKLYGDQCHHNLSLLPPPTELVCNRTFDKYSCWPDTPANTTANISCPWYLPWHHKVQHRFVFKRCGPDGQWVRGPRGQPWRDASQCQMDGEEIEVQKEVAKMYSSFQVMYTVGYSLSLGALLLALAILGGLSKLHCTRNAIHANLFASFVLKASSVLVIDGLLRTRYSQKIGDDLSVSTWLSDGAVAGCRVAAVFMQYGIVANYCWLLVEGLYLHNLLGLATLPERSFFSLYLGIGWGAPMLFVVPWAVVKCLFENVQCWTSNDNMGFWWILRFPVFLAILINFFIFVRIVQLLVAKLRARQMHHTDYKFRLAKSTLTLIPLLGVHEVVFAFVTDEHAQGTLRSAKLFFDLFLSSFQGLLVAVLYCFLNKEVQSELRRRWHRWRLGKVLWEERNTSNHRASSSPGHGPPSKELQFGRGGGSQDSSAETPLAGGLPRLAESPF
EXPERIMENTAL PROTOCOL: cell-based or functional assay
Bridge positions count the residues as written; N and C are the ends. Square brackets hold non-standard residues; d marks the D form. Ends that are not written are not given here. * marks the point of attachment. Acetyl(2-(4-imidazolyl)) = O=C(Cc1c[nH]cn1)*; Aib = CC(C)(N)C(=O)O
Dear colleague, please return just the value in %, with no unit written.

Lab note: H[Aib]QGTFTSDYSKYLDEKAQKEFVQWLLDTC (bridge 16-20) [triple agonist of SEQ ID NO: 30] gave In vitro activity compared with native peptide (%) vs Glucagon (cAMP EC50) of 0.7

Lab note: [Acetyl(2-(4-imidazolyl))][Aib]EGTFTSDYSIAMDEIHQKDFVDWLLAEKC (bridge 16-20) [triple agonist of SEQ ID NO: 91] gave In vitro activity compared with native peptide (%) vs Glucagon (cAMP EC50) of 16.8

Lab note: H[Aib]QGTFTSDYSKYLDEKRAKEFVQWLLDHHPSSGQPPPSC (bridge 16-20) [triple agonist of SEQ ID NO: 50] gave In vitro activity compared with native peptide (%) vs Glucagon (cAMP EC50) of 50.5

Lab note: H[Aib]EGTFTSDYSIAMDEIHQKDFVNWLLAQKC (bridge 16-20) [triple agonist of SEQ ID NO: 79] gave In vitro activity compared with native peptide (%) vs Glucagon (cAMP EC50) of 4.9
